I'd appreciate it if you could supply composite z-score values for the items below.
experiment: small-molecule microarray binders of probe aShh, primary screen, biochemical, biotinylated probe, 635/667 nm fluorescence (AID 1114); settings: higher = more signal;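 further: probe is biotin-labelled aShh protein from a stem cell growth factor screen; measures binding of labelled protein to compounds printed on the slide; score merges feature fluorescence at 667 nm with signal-to-noise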
One number for each entry.

CC[C@H]1C2=C3C(CC[C@H]4C(OCc5ccc(F)cc5C(F)(F)F)OC[C@](C)([C@@H]34)N(C(=O)OC(C)(C)C)C2)C(COC(C)=O)C1COC(C)=O (stereo partly drawn) : 1.15

# batch size: 6; output composite z-score per entry
1. CC(C)Cc1ccc(CN2CC[C@@H](NC(=O)c3ccccc3)C2)cc1
2. COCCOC(=O)N1C(=O)[C@@]2(c3cc(C#CCCO)ccc31)[C@H](C(=O)N1CCN(c3ncccn3)CC1)[C@H]1C(=O)O[C@H](c3ccccc3)[C@H](c3ccccc3)N1[C@@H]2c1ccc(OCCO)cc1
3. COC(=O)c1c2oc(c1C(=O)OC)C(=O)N[C@H](Cc1ccccc1)Cn1cc(nn1)C1(CCCCC1)NC(=O)N[C@H](CO)CC2
4. C=CCNC(=O)[C@@H]1[C@H]2C(=O)O[C@H](c3ccccc3)[C@H](c3ccccc3)N2[C@H](c2ccc(OCCO)cc2)[C@@]12C(=O)N(C(=O)OCCOC)c1ccccc12
5. COc1ccc([Si](C)(C)[C@H]2[C@H](CC(=O)N3CCC[C@H]3CO)O[C@@]3(C(=O)N(C)c4ccccc43)[C@@H]2C)cc1
6. COCCCNC(=O)[C@@]1(c2ccc([N+](=O)[O-])cc2)CC(=O)N(C2CCCCC2)[C@@H]1c1ccc(CO)cc1I

A)
1: -0.345; 2: 0.0469; 3: 0.0639; 4: 0.0639; 5: -0.0368; 6: -0.0904

src = PubChem BioAssay
